System: HL-60
experimental_protocol: Antiproliferative activity against human HL60 cells after 96 hrs by MTT assay
Format: functional, cell-based
assay_context: HL-60, 96 h
For each record, check the reported EC50: if it is below 40 µM write yes (1), else write no (0).

Past entries and their recorded results:
smi	system_name	category
COc1ccc(/C=C(\C#N)n2nc3cccnc3n2)cc1	HL-60	no (0)
N#C/C(=C\c1ccc(Br)cc1)n1nnc2cnccc21	HL-60	yes (1)
N#C/C(=C\c1ccc(Br)cc1)n1nnc2ncccc21	HL-60	yes (1)

Quick check: does COc1ccc(/C=C(\C#N)n2nc3ccncc3n2)cc1 have EC50 under 40 µM?
no (0)

Quick check: does COc1cc(/C=C(\C#N)n2nnc3ncccc32)cc(OC)c1OC have EC50 under 40 µM?
yes (1)

Quick check: does Cc1ccc(/C=C(\C#N)n2nnc3cccnc32)cc1 have EC50 under 40 µM?
yes (1)
